Task for the reader: assign each of the following compounds its reported TGI.
System: MOLT-4 leukemia
Assay: NCI tumour cell line growth inhibition, 48 h

# lookup: TGI of Nc1ccc(Sc2nnc(N)s2)cc1 > 100 µM

# lookup: TGI of O=C(O)Cc1cc(F)ccc1C(=O)O > 100 µM

# lookup: TGI of COc1ccc(C(c2ccc(OC)cc2)N2C(=O)CCC2C(=O)O)cc1 (stereo not drawn) > 100 µM

# lookup: TGI of CC(C)(C)OC(=O)NCC(=O)NC1CC=CCC1NC(=O)CNC(=O)OC(C)(C)C (stereo not drawn) > 100 µM

# lookup: TGI of COc1cc(/C=C/c2cc(/C=C/c3ccc(O)c(OC)c3)n(C(=O)Cc3ccccc3)n2)ccc1O > 100 µM

# lookup: TGI of FC(F)(F)c1ccc2c(c1)nc(-c1ccccc1)n2CC1CCCN2CCCCC12 (stereo not drawn) > 100 µM

# lookup: TGI of COc1ccc(/C=C/C(=O)c2c(O)c(C)c(O)c3c2OC2=CC(O)=C(C(C)=O)C(=O)[C@]23C)cc1 > 17.5 µM

# lookup: TGI of O=[N+]([O-])c1ccc(NC(=S)N=Nc2c(O)[nH]c3ccccc23)cc1 19.8 µM

# lookup: TGI of COc1cc2c(cc1OCCCCCN1C(=O)c3cccc4cccc(c34)C1=O)N=C[C@@H]1CCCN1C2=O > 100 µM

# lookup: TGI of CCOC(=O)c1csc(NC(=O)CN2CCN(c3ccccc3)CC2)n1 > 100 µM

# lookup: TGI of CC(=O)Nc1cccc2[nH]c3ccccc3c(=O)c12 > 100 µM

# lookup: TGI of O=C1c2ccccc2C(=O)N1[C@@H](Cc1ccccc1)C(=O)n1cccc1CO > 100 µM

# lookup: TGI of [N-]=[N+]=CC(=O)OC1CCOCC1 > 100 µM

# lookup: TGI of COC(=O)/C(C#N)=C1\CCC(OC)N1 (stereo not drawn) > 100 µM

# lookup: TGI of CCc1cccc(C(C)CC)c1NC(=O)CC1C(=O)Nc2ccccc2S1(=O)=O (stereo not drawn) 41.5 µM

# lookup: TGI of COc1cccc2c1C(=O)c1c(O)c3c(c(O)c1C2=O)C[C@@](O)(C(=O)CO)C[C@@H]3OC1CC(N(C)C)C(O)C(C)O1 (stereo partly drawn) 0.299 µM

# lookup: TGI of COc1ccccc1/C=C/C(=O)c1ccc(Nc2nc(Nc3ccc(F)cc3)nc(Nc3ccc(F)cc3)n2)cc1 97.8 µM

# lookup: TGI of CC(CN(C)C)C(C#N)(c1ccccc1)c1ccccc1 (stereo not drawn) > 100 µM
